inhibition reference
- target.of.assay: Serine/threonine-protein kinase D2 (Homo sapiens) (UniProt Q9BZL6);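 note: reported percent inhibition values are means, part of the GSK PKIS kinase panel screen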
- Sequence (Q9BZL6 whole entry): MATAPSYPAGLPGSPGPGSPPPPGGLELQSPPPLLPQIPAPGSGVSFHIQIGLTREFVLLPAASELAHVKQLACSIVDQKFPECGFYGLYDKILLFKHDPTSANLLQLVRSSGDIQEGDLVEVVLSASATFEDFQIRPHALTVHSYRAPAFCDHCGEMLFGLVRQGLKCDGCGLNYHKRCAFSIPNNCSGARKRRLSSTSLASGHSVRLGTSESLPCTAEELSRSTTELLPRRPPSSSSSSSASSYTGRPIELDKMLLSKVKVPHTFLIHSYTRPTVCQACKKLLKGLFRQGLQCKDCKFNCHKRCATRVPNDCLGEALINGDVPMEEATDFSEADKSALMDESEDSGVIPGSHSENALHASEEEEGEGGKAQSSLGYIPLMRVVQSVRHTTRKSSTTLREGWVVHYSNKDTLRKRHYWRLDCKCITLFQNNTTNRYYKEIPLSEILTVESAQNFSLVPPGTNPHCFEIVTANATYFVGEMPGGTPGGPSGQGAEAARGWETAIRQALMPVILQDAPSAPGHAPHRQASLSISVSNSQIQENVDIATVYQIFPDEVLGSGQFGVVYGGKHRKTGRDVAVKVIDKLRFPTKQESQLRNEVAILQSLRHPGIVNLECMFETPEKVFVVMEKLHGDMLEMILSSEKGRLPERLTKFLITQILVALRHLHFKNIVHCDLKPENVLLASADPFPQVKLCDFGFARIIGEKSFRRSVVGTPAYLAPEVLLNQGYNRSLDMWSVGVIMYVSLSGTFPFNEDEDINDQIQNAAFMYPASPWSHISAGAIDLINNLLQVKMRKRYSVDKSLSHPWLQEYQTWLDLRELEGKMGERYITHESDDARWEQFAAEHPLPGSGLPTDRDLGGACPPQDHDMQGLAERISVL
- setup.conditions: at 0.1 µM
measured.endpoint: inhibition (%)

smiles: [O-][S+]1CCN(Cc2ccc(-c3ccc4ncnc(Nc5ccc(OCc6ccccc6)c(F)c5)c4c3)o2)CC1
test.result: 3.5
--
smiles: COc1cc2ncn(-c3cc(OCc4ccccc4Cl)c(C(N)=O)s3)c2cc1OC
test.result: -0.54
--
smiles: CN1CCC(C(=O)Nc2n[nH]c3nnc(-c4ccccc4)cc23)CC1
test.result: 4.78
--
smiles: Cn1cc(C=C2C(=O)Nc3cccnc32)c2ccccc21
test.result: 3.33
--
smiles: CS(=O)(=O)CCNCc1ccc(-c2ccc3ncnc(Nc4ccc(OCc5ccccc5)c(Cl)c4)c3c2)o1
test.result: -0.95
--
smiles: NCc1ccc(-c2nc(-c3ccc(Cl)c(O)c3)c(-c3ccncc3)[nH]2)cc1
test.result: 1.57
--
smiles: CCCN1CCC(Oc2cc(Nc3nc(Nc4cccc(F)c4C(N)=O)c4cc[nH]c4n3)c(OC)cc2Cl)CC1
test.result: -0.33
--
smiles: COc1ccccc1Nc1ncc(-c2ccccc2)o1
test.result: 3.84
--
smiles: CCn1c(-c2nonc2N)nc2cncc(C(=O)N3CC[C@H](N)C3)c21
test.result: 6.65
--
smiles: CCn1c(-c2nonc2N)nc2cncc(C(=O)N3CCNCC3)c21
test.result: 5.57
--
smiles: CNC(=O)c1cncc(/C=C/c2c(Cl)cccc2Cl)c1
test.result: 1.54
--
smiles: CCn1c(-c2nonc2N)nc2c(C#CC(C)(C)O)nc(CN3CCCC3)cc21
test.result: 1.71
--
smiles: O=C1Nc2ccc(C(=O)c3ccco3)cc2C1=Cc1cc(Cl)c(O)c(Cl)c1
test.result: 2.72
--
smiles: O=C(Nc1n[nH]c2nc(-c3ccco3)c(Br)cc12)C1CC1
test.result: 3
--
smiles: CC(=O)Nc1cccc(C#Cc2cncnc2Nc2ccc(OCc3cccc(F)c3)c(Cl)c2)n1
test.result: -1.45
--
smiles: CS(=O)(=O)CCNCc1nc(-c2ccc3ncnc(Nc4ccc(F)c(Cl)c4)c3c2)cs1
test.result: 0.4
--
smiles: COc1ccc(-c2coc3ncnc(N)c23)cc1
test.result: 4.87
--
smiles: Fc1cccc(COc2ccc(Nc3ncnc4cc(-c5ccc[nH]5)sc34)cc2Cl)c1
test.result: -0.92
--
smiles: COc1cc2ncn(-c3cc(OCc4ccccc4C(F)(F)F)c(C(N)=O)s3)c2cc1OC
test.result: 1.16
--
smiles: O=C1NC(=O)C(c2ccccc2Cl)=C1Nc1cccc(O)c1
test.result: 1.91
--
smiles: CC(C)=Cc1cccc2c1/C(=N/Nc1ccc(S(N)(=O)=O)cc1)C(=O)N2
test.result: -0.05

Measured values drawn from ChEMBL document CHEMBL1961873 for this set.
